Reported kon by item:
Molecular target: T1, recombinant his-tag human LAG3-ECD protein (human, UniProt P18627 23-450)
T1 construct: extracellular domain; not shown: his tag
T1 sequence (looked up): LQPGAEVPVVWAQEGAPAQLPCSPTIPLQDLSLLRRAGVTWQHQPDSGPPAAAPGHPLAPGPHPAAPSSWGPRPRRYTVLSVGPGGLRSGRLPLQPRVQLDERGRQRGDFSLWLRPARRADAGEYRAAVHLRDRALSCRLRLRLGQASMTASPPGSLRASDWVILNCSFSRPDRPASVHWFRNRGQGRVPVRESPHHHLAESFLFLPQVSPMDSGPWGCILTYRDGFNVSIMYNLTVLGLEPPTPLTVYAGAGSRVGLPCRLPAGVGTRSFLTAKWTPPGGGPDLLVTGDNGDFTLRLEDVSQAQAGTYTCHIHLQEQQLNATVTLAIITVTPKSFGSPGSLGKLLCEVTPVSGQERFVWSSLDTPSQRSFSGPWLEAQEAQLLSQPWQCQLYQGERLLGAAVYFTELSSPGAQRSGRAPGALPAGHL
Assay: SPR Biacore T200, capture method as Example 2.7
Kindly provide the numeric value in M⁻¹ s⁻¹ only, without the unit symbol.

INSERT INTO assay_data (binder, value_observed) VALUES
  ('147H 3794 (antibody, V domains shown) VH: EVQLVQSGAEVKKPGASVKVSCKASGYLFTNYWLGWIKQAPGQGLEWIGDIYPGGDYIVYNEKFKGKATLTADTSISTAYMELSRLRSDDTAVYYCARPNLPGDYWGQGTTVTVSS VL: DIVMTQSPLSLPVTPGEPASISCRSSKSLLHSNAITYLYWYLQKPGQSPQLLIYQVSNLASGVPDRFSGSGSGTDFTLKISRVEAEDVGVYYCAQYLELPWTFGGGTKVEIK', '3.7e+06'),
  ('147H 3421 (antibody, V domains shown) VH: EVQLVQSGAEVKKPGASVKVSCKASGYTFTNYWLGWIKQAPGQGLEWIGDIYPGGDYINYNEKFKGKATLTADTSISTAYMELSRLRSDDTAVYYCARPNLPKDHWGQGTTVTVSS VL: DIVMTQSPLSLPVTPGEPASISCRSSKSLLHSNAITYLYWYLQKPGQSPQLLIYQVSNLASGVPDRFSGSGSGTDFTLKISRVEAEDVGVYYCAQNLELPWTFGGGTKVEIK', '1.4e+06');

We next turn to a different binder, shown below.
Query block: Bench note: what kon did 147H 3810 (antibody, V domains shown, also called B3810) VH: EVQLVQSGAEVKKPGASVKVSCKASGYLFTNYWLGWIKQAPGQGLEWIGDIYPGGDYIVYNEKFKGKATLTADTSISTAYMELSRLRSDDTAVYYCARPNLPKDHWGQGTTVTVSS VL: DIVMTQSPLSLPVTPGEPASISCRSSKSLLHSNAITYLYWYLQKPGQSPQLLIYQVSNLATGVPDRFSGSGSGTDFTLKISRVEAEDVGVYYCAQYLELPWTFGGGTKVEIK show?
Result block: 4.7e+06
